Measured protein stability index, listed per entry for reference.
B1: SLC19A2 (parent)
chain: IYPVWTYSYLVLLFPVFLATDYLR

# Variants of: B1
# assay-remarks: protein stability index of a GFP-peptide fusion (GPS, HEK-293T) (PSI 1-6); higher = more stable;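 note: lentivirally expressed fusions sorted by FACS into six bins by GFP to DsRed ratio, PSI derived from sequencing read proportions per bin multiplied by bin number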
# assay-setup: c terminus: a fixed tail appended
endpoint-name: protein stability index

1. V4M : 2.76
2. A19S : 2.5
3. Y22T : 2.68
4. Y7T : 2.58
5. R24F : 3.56
6. S8M : 3.15
7. I1S : 2.54
8. L18H : 3.99
9. Y22W : 2.78
10. T6H : 3.42
11. L13S : 2.34
12. Y2K : 2.44
13. V11C : 3.16
14. L10K : 1.93
15. V16Q : 3.85
16. L12V : 2.6
17. V4Y : 2.91
18. L10W : 3.88
19. S8F : 2.43
20. Y2E : 2.56
21. Y22P : 3.49
22. F17S : 2.64
23. T6A : 2.63
24. T20F : 2.44
25. F17M : 3.21
26. P15Q : 3.38
27. T6R : 2.39
28. L12T : 2.41
29. D21T : 2.75
30. I1H : 4.44
31. R24M : 2.99
32. L10G : 3.23
33. S8Q : 3.59
34. L10E : 3.11
35. W5L : 2.19
36. L10N : 4.14
37. Y22Q : 1.98
38. Y7R : 3.07
39. D21V : 2.38
40. Y22K : 4.23
41. P15M : 3.22
42. T6E : 2.71
43. P15L : 2.41
44. L23A : 3.57
45. L18G : 3.7
46. L12Y : 2.31
47. F14G : 3.54
48. T20Q : 3.01
49. F14E : 2.74
50. D21K : 2.46
51. Y2W : 3.59
52. P15R : 2.7
53. V16F : 3.04
54. I1N : 2.98
55. W5K : 4.35
56. L23N : 1.46
57. D21R : 2.67
58. R24C : 1.84
59. V16N : 2.79
60. S8I : 2.41
61. S8R : 3.57
62. Y7W : 3.7
63. R24K : 3.31
64. Y2V : 3.19
65. F17T : 2.95
66. L18I : 3.03
67. D21E : 3.77
68. R24T : 1.69
69. P15W : 3.27
70. Y2H : 2.29
71. Y2Q : 3.11
72. A19Q : 2.78
73. V4I : 3.46
74. I1W : 2.38
75. L18M : 3.69
76. L18D : 2.81
77. T20A : 2.94
78. L12A : 3.41
79. L12S : 2.91
80. Y2F : 3.09
81. F14V : 2.97
82. Y22V : 2.6
